Measured IC50 accompanies every entry in the list below.
Test system: Human immunodeficiency virus
Assay: Antiviral activity against HIV1 […] infected in human MT2 cells by MTT assay
Type: functional, organism-based
Details: Human immunodeficiency virus 1, MT2

Please review the entries below; each comes with its answer.
Request: Determine reported IC50 for COc1ccc(S(=O)(=O)N(CC(C)C)C[C@@H](O)[C@H](CC23CC4CC(CC(C4)C2)C3)NC(=O)O[C@H]2CCOC2)cc1 ; test system: Human immunodeficiency virus.
Result: 39 nM

Request: Determine reported IC50 for COc1ccc(S(=O)(=O)N(Cc2ccccc2)C[C@@H](O)[C@H](CC23CC4CC(CC(C4)C2)C3)NC(=O)O[C@H]2CO[C@H]3OCC[C@H]32)cc1 ; test system: Human immunodeficiency virus.
Result: 310 nM

Request: Determine reported IC50 for COc1ccc(S(=O)(=O)N(CC(C)C)C[C@@H](O)[C@H](CC23CC4CC(CC(C4)C2)C3)NC(=O)O[C@H]2CO[C@H]3OCCC[C@H]32)cc1 ; test system: Human immunodeficiency virus.
Result: 460 nM

Request: Determine reported IC50 for COc1ccc(S(=O)(=O)N(CC(C)C)C[C@@H](O)[C@H](CC23CC4CC(CC(C4)C2)C3)NC(=O)O[C@H]2CO[C@H]3OCC[C@H]32)cc1 ; test system: Human immunodeficiency virus.
Result: 32 nM

Request: Determine reported IC50 for COc1ccc(S(=O)(=O)N(CC(C)C)C[C@@H](O)[C@H](CC23CC4CC(CC(C4)C2)C3)NC(=O)O[C@@H]2CO[C@@H]3OCCC[C@@H]32)cc1 ; test system: Human immunodeficiency virus.
Result: > 1000 nM

Request: Determine reported IC50 for CC(C)CN(C[C@@H](O)[C@H](CC12CC3CC(CC(C3)C1)C2)NC(=O)O[C@H]1CCOC1)S(=O)(=O)c1ccc(N)cc1 ; test system: Human immunodeficiency virus.
Result: 580 nM

Next:
Request: Determine reported IC50 for CC(C)CN(C[C@@H](O)[C@H](CC12CC3CC(CC(C3)C1)C2)NC(=O)O[C@H]1CO[C@H]2OCC[C@H]21)S(=O)(=O)c1ccc(N)cc1 ; test system: Human immunodeficiency virus.
Result: 60 nM

Recorded values, source ChEMBL document CHEMBL4425138.
